Ref: the RNAGym collection of RNA variant scans (doi:10.7554/elife.90254)

B1: LINE1-full (parent)
chain: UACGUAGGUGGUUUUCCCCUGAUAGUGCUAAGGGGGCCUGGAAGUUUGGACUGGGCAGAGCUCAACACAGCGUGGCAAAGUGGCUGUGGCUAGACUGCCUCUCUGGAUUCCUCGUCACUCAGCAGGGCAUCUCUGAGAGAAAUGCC

# Variants of: B1
# experimentSummary: self-cleavage, relative activity (ratio to wild type); higher = more cleavage; in vitro, sequencing; the parent is a self-cleaving ribozyme
parameterMeasured: self-cleavage
Could you respond with only the numeric value?

biosequence | self-cleavage
UACGUAGGAGGUUUUCCCCUGAUAGUGCUAAGGGGGCCUGGAAGUUUGGACUGGGCAGAACUCAACACAGCGUGGCAAAGUGGCUGUGGCUAGACUGCCUCUCUGGAUUCCUCGUCACUCAGCAGGGCAUCUCUGAGAGAAAUGCC [U9A G60A] | 0.1
UACGUAGGUGGUUUUCCCCAGAUAGUGCUAAGGGGGCCUGGAAGUUUGGACUGGGCAGAGCUCAACACAGCGUGGCAAAGUGGCUGUGGCUAGACUGCCUCUCUGGAUUCCUCGUCACUCAGCAGGGCAUCUCUGAGUGAAAUGCC [U20A A138U] | 1.19
UACGUAGGUGAUUUUCCCCUGAUAGUGCUAAGGGGGCCUGGAAGUUUGGACUGGGCAGAGCUCAACACAGCGUGGCAAAGUGGCUGUGGCUAGACUGCCUCUCUGGAUUCCUCGUCACCCAGCAGGGCAUCUCUGAGAGAAAUGCC [G11A U119C] | 0.93
UACGUUGGUGGUUUUCCCCUGAUAGUGCUAAGGGGGCCUGGAAGUUUGGACUGGGCAGAGCUCAACACAGCGUGGCAAAGUGGCUGCGGCUAGACUGCCUCUCUGGAUUCCUCGUCACUCAGCAGGGCAUCUCUGAGAGAAAUGCC [A6U U87C] | 0.16
UACGUAGGUGGUUUUCCCCUGAUAGUGCUAAGGGGGCCUGGAGGUUUGGGCUGGGCAGAGCUCAACACAGCGUGGCAAAGUGGCUGUGGCUAGACUGCCUCUCUGGAUUCCUCGUCACUCAGCAGGGCAUCUCUGAGAGAAAUGCC [A43G A50G] | 1.24

Looking up UACGUAAGUGGUUCUCCCCUGAUAGUGCUAAGGGGGCCUGGAAGUUUGGACUGGGCAGAGCUCAACACAGCGUGGCAAAGUGGCUGUGGCUAGACUGCCUCUCUGGAUUCCUCGUCACUCAGCAGGGCAUCUCUGAGAGAAAUGCC [G7A U14C] , I found its self-cleavage recorded as 0.88

Looking up UAUGUAGGUGGUUUUCCCCUGAUAGUGCUAAGGGGGCCUGGAAGUUUGGACUGGGCAGAGCUCAACACAGCGUGGCAAAGUGGCUGUGGCUAGACAGCCUCUCUGGAUUCCUCGUCACUCAGCAGGGCAUCUCUGAGAGAAAUGCC [C3U U96A] , I found its self-cleavage recorded as 0.07

Looking up UACGUAGGUGGUUUUCCCCUGAUAGUGCUAAGGGUGCCUGGAAGUUUGGACUGGGCAGAGCUCAACGCAGCGUGGCAAAGUGGCUGUGGCUAGACUGCCUCUCUGGAUUCCUCGUCACUCAGCAGGGCAUCUCUGAGAGAAAUGCC [G35U A67G] , I found its self-cleavage recorded as 0.35

Looking up UACGUAGGUGGUUUUCCCCUGAUAGUGCUAAGGGGGCCUGGAAGUUUGGACUGGGCAGAGCUCAACACAGCGUGGCAAAGUGGCUGUGACUUGACUGCCUCUCUGGAUUCCUCGUCACUCAGCAGGGCAUCUCUGAGAGAAAUGCC [G89A A92U] , I found its self-cleavage recorded as 0.07

Looking up UUCGUAGGUGGUUUUCCCCUGAUAGUGCUAAGGGGGCCUGGAAGUUUGGACUGGGCAGAGCUCAACACAGCGUGGCAAAGUGGCUGUGGCUAGACUGCCUCUCUGGAUUCCUCGUCACUCAGCAGGCCAUCUCUGAGAGAAAUGCC [A2U G127C] , I found its self-cleavage recorded as 1.16

Looking up UUCGUAGGUGAUUUUCCCCUGAUAGUGCUAAGGGGGCCUGGAAGUUUGGACUGGGCAGAGCUCAACACAGCGUGGCAAAGUGGCUGUGGCUAGACUGCCUCUCUGGAUUCCUCGUCACUCAGCAGGGCAUCUCUGAGAGAAAUGCC [A2U G11A] , I found its self-cleavage recorded as 0.92

Looking up UACGUAGGUGGUUUUCCCCUGAUAGUGCUAAGGGGGCCUGGAAGUUUGGACUGGGCAGAGCUCAACACAGCGUGGCAAAGUGGCUGUGGCUAGACUGCCUCUCUGGAUUCCUCGUCACUCAGCAGGAUAUCUCUGAGAGAAAUGCC [G127A C128U] , I found its self-cleavage recorded as 1.13

Looking up UACGUAGGUGGUUUUCCCCUGAUAGUGCUAAGGGGGCCUGGAAGUAUGGACUGGGCAGAGCUCAACACAGCGUGGCAAAGUGGCUGUGGCUAGACUGCCUCUCUGGAUUCCUCGUCACUCAGCAGGGCGUCUCUGAGAGAAAUGCC [U46A A129G] , I found its self-cleavage recorded as 1.16

Looking up UACGUAGGUGGUUUUCCCCUGUUAGUGCUAAGGGGGCCUGGAAGUUUGGACUGGGCAGAGCUCAACACAGCGUGGCAAAGUGGCUGUGGCUAGACUGCCUCUCUGGAUUCCUCGUCACUCAGCAGGGCAUCUCUGAGAGAGAUGCC [A22U A141G] , I found its self-cleavage recorded as 1.29

Looking up UACGUAGGUGGUUUUCCCCUGAUAGUGCUAAGGGGGCCUGGAAGUUUGGACUGGGCAGAGCUCAACACAGCGUGGCAAAGUGGCUGUGGCUAGACUGCCUCUCUGGAUUCCUCGCCACUCAGCAGGGCAUCUCUGAGAUAAAUGCC [U115C G139U] , I found its self-cleavage recorded as 1.79

Looking up UACGUAGGUGGUUUUCCCCUGAUAGUGCUAAGGGGGCCUGGAAGUUUGGACUGGGCAGAGCUCAACACAGCGUGGCAAAGUGGCUGUGGCUAGACUGCCUCUCUGGAUUCCUCGUCACUCAGCAGGGCACCUCUGAGAAAAAUGCC [U130C G139A] , I found its self-cleavage recorded as 1.5
